# test description: Acute toxicity test
# test settings: mouse, in vivo, po, mice, mortality for 7 days after administration, probit method

>  <mol>
Cn1c(=O)c2cnc(N)nc2n(C)c1=O

>  <LD50 at 168 h>
940 mg/kg

$$$$
>  <mol>
CCn1c(=O)c2c(N)ncnc2n(CC)c1=O

>  <LD50 at 168 h>
748 mg/kg

$$$$
>  <mol>
Cc1nc(N)c2c(=O)n(C)c(=O)n(C)c2n1

>  <LD50 at 168 h>
707 mg/kg

$$$$
>  <mol>
Cc1ncc2c(=O)n(C)c(=O)n(C)c2n1

>  <LD50 at 168 h>
690 mg/kg

$$$$
